Test system: HCT-116
Assay summary: Cytotoxicity against human HCT116 cells assessed as cell viability at 10 uM after 24 hrs by MTT assay relative to control
Assay type: functional
Reported conditions: HCT-116, 24 h, read-out: Activity

Compound	Result units	viability at 10 µM
C=C1C(=O)O[C@@H]2[C@H]3O[C@]3(C)CC/C=C(/COC(=O)Nc3cc(C(F)(F)F)cc(C(F)(F)F)c3)CC[C@@H]12	%	3.9
C=C1C(=O)O[C@@H]2[C@H]3O[C@]3(C)CC/C=C(/COC(=O)c3cc(-c4ccc(Cl)cc4)on3)CC[C@@H]12	%	103
C=C1C(=O)O[C@@H]2[C@H]3O[C@]3(C)CC/C=C(/C)[C@@H](OC(=O)Nc3ccc(F)cc3F)C[C@@H]12	%	17.6
C=C1C(=O)O[C@@H]2[C@H]3O[C@]3(C)CC/C=C(/COCc3ccc(C(F)(F)F)cc3)CC[C@@H]12	%	82.9
C=C1C(=O)O[C@@H]2[C@H]3O[C@]3(C)CC/C=C(/C)[C@@H](OC(=O)Nc3cc(C(F)(F)F)cc(C(F)(F)F)c3)C[C@@H]12	%	10.8
C=C1C(=O)O[C@@H]2[C@H]3O[C@]3(C)CC/C=C(/C)[C@@H](OC(=O)c3ccc4ccccc4c3)C[C@@H]12	%	100
C=C1C(=O)O[C@@H]2[C@H]3O[C@]3(C)CC/C=C(/COc3coc(-c4ccc(Br)cc4)c3)CC[C@@H]12	%	26.4
C=C1C(=O)O[C@@H]2C3O[C@]3(C)CC/C=C(\C)CC[C@@H]12 (some centres undefined)	%	104
C=C1C(=O)O[C@@H]2[C@H]3O[C@]3(C)CC/C=C(/COC(=O)Nc3ccc([N+](=O)[O-])cc3)CC[C@@H]12	%	1.6
C=C1C(=O)O[C@@H]2[C@H]3O[C@]3(C)CC/C=C(/C)[C@@H](OC(=O)c3cccs3)C[C@@H]12	%	29.4
C=C1C(=O)O[C@@H]2[C@H]3O[C@]3(C)CC/C=C(/COC(=O)Nc3ccccc3)CC[C@@H]12	%	45.9
C=C1C(=O)O[C@@H]2[C@H]3O[C@]3(C)CC/C=C(/COC(=O)c3ccc(C(F)(F)F)cc3C(F)(F)F)CC[C@@H]12	%	15.1
C=C1C(=O)O[C@@H]2[C@H]3O[C@]3(C)CC/C=C(/COC(=O)Nc3cccc4ccccc34)CC[C@@H]12	%	100
C=C1C(=O)O[C@@H]2[C@H]3O[C@]3(C)CC/C=C(/COCc3ccccc3)CC[C@@H]12	%	96.3

---

System: JeKo-1
Assay summary: Cytotoxicity against human JeKo1 cells assessed as cell viability at 10 uM after 24 hrs by MTT assay relative to control
Assay type: functional
Reported conditions: JeKo-1, 24 h, read-out: Activity
Decide using viability at 10 µM alone. Strictly below 20%: 1. Equal to or above 20%: -1.

Molecule	Classification
C=C1C(=O)O[C@@H]2[C@H]3O[C@]3(C)CC/C=C(/C)[C@@H](OC(=O)Nc3cccc4ccccc34)C[C@@H]12	-1
C=C1C(=O)O[C@@H]2[C@H]3O[C@]3(C)CC/C=C(/COC(=O)c3cc(-c4ccc(Cl)cc4)on3)CC[C@@H]12	-1
C=C1C(=O)O[C@@H]2[C@H]3O[C@]3(C)CC/C=C(/COCc3ccc(C(F)(F)F)cc3)CC[C@@H]12	1
C=C1C(=O)O[C@@H]2[C@H]3O[C@]3(C)CC/C=C(/C)[C@@H](OC(=O)Nc3ccc(F)cc3F)C[C@@H]12	1
C=C1C(=O)O[C@@H]2[C@H]3O[C@]3(C)CC/C=C(/C)[C@@H](OC(C(=O)OCC)c3ccccc3)C[C@@H]12 (some centres not stated)	1
C=C1C(=O)O[C@@H]2[C@H]3O[C@]3(C)CC/C=C(/COC(C(=O)OCC)c3ccccc3)CC[C@@H]12 (some centres not stated)	1
C=C1C(=O)O[C@@H]2[C@H]3O[C@]3(C)CC/C=C(/C)[C@@H](OC(=O)c3cc(C(F)(F)F)cc(C(F)(F)F)c3)C[C@@H]12	1
